Biological target: T1, ZFP SBS#674 (synthetic)
T1 chain: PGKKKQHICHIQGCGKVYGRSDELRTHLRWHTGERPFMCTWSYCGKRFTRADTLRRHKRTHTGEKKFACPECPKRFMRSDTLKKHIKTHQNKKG
Assay: EMSA
Settings: tags: MBP fusion
QUANTITY MEASURED: pKd
Numbers only, as −log10 of the molar value.

Value lookup for pKd; key = GCGGCGTCGG (dsDNA) DNA 1: GCGGCGTCGG DNA 2: CCGACGCCGC
7.56
